Target: AMPA (GluR1) receptor (Homo sapiens)
Sequence (P42261 19-906 isoform P42261-2 limits assumed, species assumed): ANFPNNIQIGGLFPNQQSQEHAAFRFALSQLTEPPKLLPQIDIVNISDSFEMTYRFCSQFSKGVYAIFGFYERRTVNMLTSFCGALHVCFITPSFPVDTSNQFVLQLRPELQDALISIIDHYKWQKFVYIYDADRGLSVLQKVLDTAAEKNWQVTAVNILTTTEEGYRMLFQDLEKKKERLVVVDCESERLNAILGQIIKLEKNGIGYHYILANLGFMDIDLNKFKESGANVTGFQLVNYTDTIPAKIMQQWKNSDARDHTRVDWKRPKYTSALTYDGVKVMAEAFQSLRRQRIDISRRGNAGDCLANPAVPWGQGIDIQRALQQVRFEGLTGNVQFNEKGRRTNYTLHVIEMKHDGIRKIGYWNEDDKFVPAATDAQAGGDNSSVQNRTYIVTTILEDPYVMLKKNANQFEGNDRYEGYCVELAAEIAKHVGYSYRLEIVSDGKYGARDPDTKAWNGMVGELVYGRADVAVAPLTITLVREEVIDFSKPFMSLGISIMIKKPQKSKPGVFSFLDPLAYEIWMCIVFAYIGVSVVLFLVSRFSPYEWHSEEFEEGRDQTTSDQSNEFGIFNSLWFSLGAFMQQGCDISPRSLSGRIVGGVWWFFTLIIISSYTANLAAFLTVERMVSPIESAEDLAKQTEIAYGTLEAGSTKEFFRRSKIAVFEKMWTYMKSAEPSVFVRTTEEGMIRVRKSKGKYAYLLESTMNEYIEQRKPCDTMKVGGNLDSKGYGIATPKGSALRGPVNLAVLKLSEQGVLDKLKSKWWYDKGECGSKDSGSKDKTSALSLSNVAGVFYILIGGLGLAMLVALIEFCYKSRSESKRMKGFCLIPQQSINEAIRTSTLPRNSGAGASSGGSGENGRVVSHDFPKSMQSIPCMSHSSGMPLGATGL
Assay: Ca2+ influx assay (FLEXstation, Fluo-3) for positive modulation of the AMPA (GluR1) receptor in HEK.GluR1(i) cells
Conditions: glutamate +/- test compound, Ca2+ response with fluo3-AM
From the text: The compounds in this invention may be tested using a biological assay which measures Ca^2+ influx mediated through positive modulation of the AMPA (GluR1) receptor using standard techniques in the art such as, but not limited to, a FLEXstation (manufactured by Molecular Devices, Sunnyvale, Calif.). An optical readout using fluorescent probes is employed to measure ion channel dependent changes in intracellular ion concentration or membrane potential. […]
endpointLabel: pEC50
Note: pEC50 values are expressed as the negative base-10 logarithm of concentration in M.

// query Consider the compound CC(O)c1cn(CC(=O)Nc2sc3c(c2C(N)=O)CCCC3)nc1C(F)(F)F (stereo not shown) . State its measured pEC50.
// result 5.66
